# procedureSummary: in vivo
# Design: species or system mice
# details: mouse, in vivo, iv, 5 mg/kg
reportedProperty: AUC (µM·h)
Quick reminder: number only, in µM·h, skip the unit.

The compound listed as `NS(=O)(=O)c1cccc2c1C(=O)c1cccc(O)c1C2=O` shows AUC equal to 0.373

----------
# procedureSummary: in vivo
# Set-up: species or system mice
# details: mouse, in vivo, iv, 5 mg/kg
reportedProperty: Cmax (nM)
Quick reminder: number only, in nM, skip the unit.

The compound listed as `NS(=O)(=O)c1cccc2c1C(=O)c1cccc(O)c1C2=O` shows Cmax equal to 978

----------
# procedureSummary: in vivo
# Parameters: species or system mice
# details: mouse, in vivo, po, 20 mg/kg
reportedProperty: Tmax

The compound listed as NS(=O)(=O)c1cccc2c1C(=O)c1cccc(O)c1C2=O [LLL12] shows Tmax equal to 4.98 min

----------
# procedureSummary: in vivo
# Set-up: species or system mice
# details: mouse, in vivo; mice; printed in the Intravenous 2 mg/kg column; read-out: F (relative bioavailability)
reportedProperty: bioavailability

The compound listed as CN(C)C(=O)Oc1cccc2c1C(=O)c1cccc(S(N)(=O)=O)c1C2=O [LLL12b] shows bioavailability equal to 38%

----------
# procedureSummary: in vivo
# Set-up: species or system mice
# details: mouse, in vivo; mice, Oral 8 mg/kg; read-out: Tmax
reportedProperty: Tmax (min)
Quick reminder: number only, in min, skip the unit.

The molecule listed as CN(C)C(=O)Oc1cccc2c1C(=O)c1cccc(S(N)(=O)=O)c1C2=O [LLL12b] shows Tmax equal to 11.4

----------
# procedureSummary: in vivo
# Parameters: species or system mice
# details: mouse, in vivo, po, 20 mg/kg
reportedProperty: AUC
Remember to put the unit after the number in your answer.

The compound listed as `NS(=O)(=O)c1cccc2c1C(=O)c1cccc(O)c1C2=O` shows AUC equal to 40.7 nM·h

----------
# procedureSummary: in vivo
# Set-up: species or system mice
# details: mouse, in vivo, ip, 20 mg/kg
reportedProperty: AUC(0-inf) (µM·h)
Quick reminder: number only, in µM·h, skip the unit.

The compound listed as `NS(=O)(=O)c1cccc2c1C(=O)c1cccc(O)c1C2=O` shows AUC(0-inf) equal to 0.438

----------
# procedureSummary: in vivo
# Design: species or system mice
# details: mouse, in vivo
reportedProperty: Tmax

The compound listed as `NS(=O)(=O)c1cccc2c1C(=O)c1cccc(O)c1C2=O` shows Tmax equal to 5 to 10 min

----------
# procedureSummary: in vivo
# Design: species or system mice
# details: mouse, in vivo; mice, Oral 8 mg/kg
reportedProperty: AUC(0-t) (ng·h/mL)
Quick reminder: number only, in ng·h/mL, skip the unit.

The compound listed as CN(C)C(=O)Oc1cccc2c1C(=O)c1cccc(S(N)(=O)=O)c1C2=O [LLL12b] shows AUC(0-t) equal to 1360

----------
# procedureSummary: in vivo
# Parameters: species or system mice
# details: mouse, in vivo, po, 20 mg/kg
reportedProperty: Cmax (nM)
Quick reminder: number only, in nM, skip the unit.

The compound listed as `NS(=O)(=O)c1cccc2c1C(=O)c1cccc(O)c1C2=O` shows Cmax equal to 176

----------
# procedureSummary: in vivo
# Parameters: species or system mice
# details: mouse, in vivo; mice, Oral 8 mg/kg; read-out: Co/Cmax
reportedProperty: Cmax (ng/mL)
Quick reminder: number only, in ng/mL, skip the unit.

The compound listed as CN(C)C(=O)Oc1cccc2c1C(=O)c1cccc(S(N)(=O)=O)c1C2=O [LLL12b] shows Cmax equal to 278

----------
# procedureSummary: in vivo
# Set-up: species or system mice
# details: mouse, in vivo; mice, Intravenous 2 mg/kg
reportedProperty: clearance

The compound listed as CN(C)C(=O)Oc1cccc2c1C(=O)c1cccc(S(N)(=O)=O)c1C2=O [LLL12b] shows clearance equal to 36.5 mL/min/kg

----------
# procedureSummary: in vivo
# Design: species or system mice
# details: mouse, in vivo; mice, Intravenous 2 mg/kg; read-out: Co/Cmax
reportedProperty: Cmax (ng/mL)
Quick reminder: number only, in ng/mL, skip the unit.

The molecule listed as CN(C)C(=O)Oc1cccc2c1C(=O)c1cccc(S(N)(=O)=O)c1C2=O [LLL12b] shows Cmax equal to 2880

----------
# procedureSummary: in vivo
# Design: species or system mice
# details: mouse, in vivo, ip, 20 mg/kg
reportedProperty: Cmax (nM)
Quick reminder: number only, in nM, skip the unit.

The molecule listed as NS(=O)(=O)c1cccc2c1C(=O)c1cccc(O)c1C2=O [LLL12] shows Cmax equal to 922

----------
# procedureSummary: in vivo
# Design: species or system mice
# details: mouse, in vivo, ip, 20 mg/kg
reportedProperty: bioavailability (%)
Quick reminder: number only, in %, skip the unit.

The compound listed as `NS(=O)(=O)c1cccc2c1C(=O)c1cccc(O)c1C2=O` shows bioavailability equal to 29.1

----------
# procedureSummary: in vivo
# Set-up: species or system mice
# details: mouse, in vivo, iv, 5 mg/kg
reportedProperty: bioavailability (%)
Quick reminder: number only, in %, skip the unit.

The compound listed as `NS(=O)(=O)c1cccc2c1C(=O)c1cccc(O)c1C2=O` shows bioavailability equal to 100

----------
# procedureSummary: in vivo
# Design: species or system mice
# details: mouse, in vivo, ip, 20 mg/kg
reportedProperty: AUC (µM·h)
Quick reminder: number only, in µM·h, skip the unit.

The compound listed as `NS(=O)(=O)c1cccc2c1C(=O)c1cccc(O)c1C2=O` shows AUC equal to 0.431

----------
# procedureSummary: in vivo
# Set-up: species or system mice
# details: mouse, in vivo, iv, 5 mg/kg
reportedProperty: Tmax (min)
Quick reminder: number only, in min, skip the unit.

The compound listed as `NS(=O)(=O)c1cccc2c1C(=O)c1cccc(O)c1C2=O` shows Tmax equal to 10

----------
# procedureSummary: in vivo
# Set-up: species or system mice
# details: mouse, in vivo; mice, Intravenous 2 mg/kg
reportedProperty: half-life (h)
Quick reminder: number only, in h, skip the unit.

The compound listed as CN(C)C(=O)Oc1cccc2c1C(=O)c1cccc(S(N)(=O)=O)c1C2=O [LLL12b] shows half-life equal to 3.88
